Just for reference, BindingDB's records for doi:10.1002/1439-7633(20021004)3:10 is where these values come from.

assayed-system: Alpha-1B adrenergic receptor (Rattus norvegicus)
Sequence (P15823 whole entry): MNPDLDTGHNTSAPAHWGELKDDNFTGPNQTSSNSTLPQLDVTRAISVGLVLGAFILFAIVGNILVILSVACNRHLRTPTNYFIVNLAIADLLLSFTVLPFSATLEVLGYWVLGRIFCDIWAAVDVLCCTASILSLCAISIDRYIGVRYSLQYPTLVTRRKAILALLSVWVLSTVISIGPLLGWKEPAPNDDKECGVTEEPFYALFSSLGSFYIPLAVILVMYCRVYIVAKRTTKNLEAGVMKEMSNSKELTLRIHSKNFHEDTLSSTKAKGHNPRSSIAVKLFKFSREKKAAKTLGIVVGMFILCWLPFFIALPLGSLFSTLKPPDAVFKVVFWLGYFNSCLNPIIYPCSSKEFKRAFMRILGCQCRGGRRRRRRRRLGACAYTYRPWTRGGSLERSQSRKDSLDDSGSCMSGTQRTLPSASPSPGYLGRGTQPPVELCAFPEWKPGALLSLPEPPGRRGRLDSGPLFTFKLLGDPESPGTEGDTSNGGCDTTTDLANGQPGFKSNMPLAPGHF
Note to self: Ki under 10 nM means true, ties and anything higher get false.

compound="COc1cccc2c1CN(CC(CO)N1CCC(c3noc4cc(F)ccc34)CC1)C2 (stereo unspecified) [Isoindoline, 20]" assayed_system="Alpha-1B adrenergic receptor (Rattus norvegicus)" class_assignment=false
compound="O=C1c2ccccc2CN1CC(CO)N1CCC(c2noc3cc(F)ccc23)CC1 (stereo unspecified) [Isoindoline, 23]" assayed_system="Alpha-1B adrenergic receptor (Rattus norvegicus)" class_assignment=true
compound="OCC(CN1Cc2ccc(Cl)cc2C1)N1CCC(c2noc3cc(F)ccc23)CC1 (stereo unspecified) [Isoindoline, 13]" assayed_system="Alpha-1B adrenergic receptor (Rattus norvegicus)" class_assignment=false
compound="OCC(CN1Cc2ccc(C(F)(F)F)cc2C1)N1CCC(c2noc3cc(F)ccc23)CC1 (stereo unspecified) [Isoindoline, 17]" assayed_system="Alpha-1B adrenergic receptor (Rattus norvegicus)" class_assignment=false
compound="Cc1cccc2c1CN(CC(CO)N1CCC(c3noc4cc(F)ccc34)CC1)C2 (stereo unspecified) [Isoindoline, 16]" assayed_system="Alpha-1B adrenergic receptor (Rattus norvegicus)" class_assignment=false
compound="OCC(CN1Cc2ccc(F)cc2C1)N1CCC(c2noc3cc(F)ccc23)CC1 (stereo unspecified) [Isoindoline, 11]" assayed_system="Alpha-1B adrenergic receptor (Rattus norvegicus)" class_assignment=false
